- Test system: 435261-313-R-J1-PDC tumor spheroid viability;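 also: spheroids exposed to compounds for 7 days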
- measurement description: Anticancer human tumor 435261-313-R-J1-PDC patient-derived colon adenocarcinoma cell line growth inhibition [PI3K]
- conditions: curve of first compound; second compound 1 µM; spheroids with HUVEC and MSC
pIC50: −log10 of the molar value.
measure name: pIC50

Record C#Cc1c(F)ccc2cc(O)cc(-c3ncc4c(N5CC6CCC(C5)N6)nc(OCC56CCCN5CC(F)C6)nc4c3F)c12 (stereo not given) + CC(Nc1ncnc2nc[nH]c12)c1cc2cccc(Cl)c2c(=O)n1-c1ccccc1 . Reported pIC50: 5.26

Record Cn1cnc2c(F)c(Nc3ccc(Br)cc3Cl)c(C(=O)NOCCO)cc21 + COc1c(OCCCN2CCOCC2)ccc2c3n(c(=NC(=O)c4cnc(N)nc4)nc12)CCN3 . Reported pIC50: > 8.02

Record C#Cc1c(F)ccc2cc(O)cc(-c3ncc4c(N5CC6CCC(C5)N6)nc(OCC56CCCN5CC(F)C6)nc4c3F)c12 (stereo not given) + Cc1nc(NC(=O)N2CCCC2C(N)=O)sc1-c1ccnc(C(C)(C)C(F)(F)F)c1 . Reported pIC50: > 7.50

Record CC1(C)CCC(Nc2ncc(C(F)(F)F)c(-c3c[nH]c4c(P(C)(C)=O)c(C#N)ccc34)n2)CN1 (stereo not given) + CC(Nc1ccc2c(c1)OCCn1cc(N3C(=O)OCC3C(F)F)nc1-2)C(N)=O . Reported pIC50: > 7.50

Record Cn1ncnc1[C@H]1c2n[nH]c(=O)c3cc(F)cc(c23)N[C@@H]1c1ccc(F)cc1 + CC(Nc1ncnc2nc[nH]c12)c1cc2cccc(Cl)c2c(=O)n1-c1ccccc1 . Reported pIC50: < 7.00
